Below are Ki measurements against Matrix metalloproteinase-9 (Homo sapiens) drawn from the literature.
Sequence (P14780 whole entry): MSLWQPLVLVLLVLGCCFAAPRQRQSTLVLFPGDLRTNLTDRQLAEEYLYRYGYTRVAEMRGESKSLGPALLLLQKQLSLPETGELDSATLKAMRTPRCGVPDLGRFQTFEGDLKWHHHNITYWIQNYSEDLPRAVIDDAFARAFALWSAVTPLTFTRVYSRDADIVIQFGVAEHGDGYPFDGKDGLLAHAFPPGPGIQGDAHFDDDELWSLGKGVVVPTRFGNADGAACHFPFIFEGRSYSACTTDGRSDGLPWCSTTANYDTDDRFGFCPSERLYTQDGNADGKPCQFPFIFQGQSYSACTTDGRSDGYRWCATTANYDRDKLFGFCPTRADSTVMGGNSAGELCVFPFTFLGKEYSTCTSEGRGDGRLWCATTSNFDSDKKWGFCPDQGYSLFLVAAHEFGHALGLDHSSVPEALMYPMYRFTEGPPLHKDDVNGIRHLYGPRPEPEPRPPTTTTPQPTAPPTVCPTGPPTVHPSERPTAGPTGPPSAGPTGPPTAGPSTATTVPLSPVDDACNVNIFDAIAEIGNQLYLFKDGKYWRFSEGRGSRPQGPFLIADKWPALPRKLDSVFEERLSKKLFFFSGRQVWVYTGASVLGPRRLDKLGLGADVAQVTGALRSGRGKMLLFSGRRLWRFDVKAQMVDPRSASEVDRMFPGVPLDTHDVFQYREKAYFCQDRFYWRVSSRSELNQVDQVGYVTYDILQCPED
reportedProperty: Ki (nM)

Below: 2 compounds and their reported Ki.
1. O=S(=O)(N[C@H]1CCC[C@@H]1O)c1ccc(Oc2ccccc2)cc1 (racemic)
200000
2. CNC(=O)[C@H](Cc1c[nH]c2ccccc12)NC(=O)[C@@H](CC(=O)NOC)CC(C)C
7.9

(A) CCCCCNC(=O)[C@H](Cc1c[nH]c2ccccc12)NC(=O)[C@@H](CC(=O)NO)CC(C)C
(B) CNC(=O)[C@H](Cc1ccc(OC)cc1)NS(=O)(=O)C(CCc1ccccc1)CC(=O)O (some centres undefined)
(C) C[C@H](NC(=O)[C@H](Cc1ccc(O)cc1)NC(=O)C(=O)NO)c1ccccc1
Query: Sort by Ki, descending. Note for the reader: the ranking is given by listing the labels in the order requested.
Result: B, C, A
(B: 9900 nM, C: 600 nM, A: 7.1 nM)
